Test system: SF-295 CNS
Assay: NCI tumour cell line growth inhibition, 48 h
Could you please report measured TGI for the items listed next?

Solved entries (count: 2):
>>> reported_value("Cc1cccc(N=Nc2c(C)nn(C(=O)CC(=O)Nc3ccccc3)c2C)c1")
"> 100 µM"
>>> reported_value("CN(C)CCCN(c1nc(C(Cl)(Cl)Cl)ns1)c1nc(C(Cl)(Cl)Cl)ns1")
"3.6 µM"

Record TGI per entry; entries follow.
1. O=C1N=C(c2ccccc2)OC1C(=O)c1ccccc1 (stereo not given)
2. CC(=O)OC1CC(O)CC2=CCC3C4CCC(C(C)(O)C(O)CC5COC(=O)C5C)C4(C)CCC3C21C (stereo not given)
3. O=C(O)C(Cc1c[nH]c2ccccc12)N=Cc1nc(-c2ccccc2)oc1O (stereo not given)

Result block:
1: > 100 µM; 2: > 25 µM; 3: > 100 µM

---

Test system: MCF7 breast
Experiment: NCI tumour cell line growth inhibition, 48 h
REPORTED_ENDPOINT: TGI (µM)
Give bare numbers, in µM.

>>> reported_value("CN[C@]12CC3(C=CC(=O)C=C3)O[C@@]1(Cc1ccc(OC)cc1)N(C)C(=O)N2")
15.1

// next entry
Query block: // fetch TGI given entry COc1ccc(N(CC(=O)NCCC[Te]c2ccccc2)C(=O)CCSC2=C(C)C(=O)c3ccccc3C2=O)cc1
Result block: 11.3

---

System: SN12C renal
Assay: NCI tumour cell line growth inhibition, 48 h
REPORTED_ENDPOINT: TGI

Below: 5 compounds and their reported TGI.
>>> reported_value("CCN(CC)CCOc1ccc(/C(=C(\\C)Cc2ccc(OC)cc2)c2ccc(OC(=O)NCc3ccccc3)cc2)cc1")
"3.21 µM"
>>> reported_value("CC(NC(=O)C(N)Cc1ccc(O)cn1)C(=O)O (stereo unspecified)")
"> 100 µM"
>>> reported_value("CC(=O)OCc1cc(OC(C)=O)cnc1COC(C)=O")
"> 100 µM"
>>> reported_value("CNNCc1ccc(C(=O)NC(C)C)cc1")
"> 500 µM"
>>> reported_value("COc1ccc(C(c2ccc(C(C)C)cc(=O)c2O)c2ccc3cccnc3c2O)cc1 (stereo unspecified)")
"9.48 µM"

Give me TGI for each of these compounds, listed below.
1. COC(=O)C1C(C)N1C (stereo unspecified)
2. CC(=O)OC1CC(O)CC2=CCC3C4CCC(C(C)(O)C(O)CC5COC(=O)C5C)C4(C)CCC3C21C (stereo unspecified)

Result block:
1: > 100 µM; 2: > 25 µM

Provide TGI values for the following items, in order.
1. Nc1cc2c3c(cccc3c1)C(=O)N(c1ccc(OCCN3CCCCC3)cc1)C2=O
2. O=C(O)c1ccc(O)c(N=Nc2cc(S(=O)(=O)O)c3ccccc3c2O)c1
3. O=C1C2=Cc3ccccc3OC2(O)Oc2cc(O)ccc21 (stereo unspecified)

Result block:
1: > 54.3 µM; 2: > 100 µM; 3: > 100 µM

Provide TGI for all items below, preserving their order.
1. Cc1cccc2c(N=Nc3ccc(S(N)(=O)=O)cc3)c(O)[nH]c12
2. COc1cc(/C=C2\CN(C)C/C(=C\c3cc(OC)c(OC)c(OC)c3)C2=O)cc(OC)c1OC

Result block:
1: > 25 µM; 2: 0.833 µM

Please give TGI, item by item, for the list that follows.
1. NS(=O)(=O)c1ccc(NNc2c3ccccc3nc3ccccc23)cc1
2. CCOC(=O)C(Cc1c2ccccc2cc2ccccc12)(NC(C)=O)C(=O)OCC
3. C=C1C(=O)O[C@@H]2C(=O)[C@@H](C)[C@@H]3C=CC(=O)[C@@]3(C)[C@@H](OC(=O)/C(C)=C\C)[C@H]12
4. CC1(C)C(O)C[C@]23CCC[C@](C)(C[C@@H](O)C12)C3 (stereo partly specified)
5. Cc1cc2c(c(C=Nc3ccc([N+](=O)[O-])cc3)c1)OC1(C=C2)Oc2ccccc2C(=O)N1C (stereo unspecified)
6. Nc1ncnc2c1ncn2C1C=CC(CP(=O)(O)O)C1 (stereo unspecified)
7. O=S(=O)(/N=C(\NO)Nc1ccc(Cl)cc1)c1ccc(S(=O)(=O)c2ccccc2)s1
8. c1cc(OCCN2CCCCCC2)ccc1CNc1ccc2nc(CCC3CCCCC3)[nH]c2c1

Result block:
1: 23.1 µM; 2: > 100 µM; 3: 2.85 µM; 4: > 100 µM; 5: 46.2 µM; 6: > 100 µM; 7: 39.9 µM; 8: 4.57 µM

Query block: Specify reported TGI for the compound shown: CCCCOC(=O)C1CN2C=CC=NC2=NC1(C(F)(F)F)C(F)(F)F (stereo unspecified)
Result block: > 100 µM
